- Tested on: transfected CHO cells expressing recombinant human monoclonal antibody (cell line 1)
- assay_protocol: 24-deep well culture, cell line 1: VCD, viability, titer, qP
- Format: cell-based, Chinese hamster
- protocol_conditions: Cell Line 1; 5 microM; D 2
Exercise: state measured Viability for each of the compounds provided.
Numbers only; they are read as %.

Input line: Retrieve Viability measured for CC1CCC(n2c3cnccc3c3cnc(Nc4ccc(N5CCNC(C)C5)nn4)nc32)CC1 (stereo not shown) [Compound D] and print it.
Output line: 86.10

Input line: Retrieve Viability measured for CC1CCC(n2c3cnccc3c3cnc(Nc4ccc(N5CCC6(CC5)CCS(=O)(=O)C6)nn4)nc32)CC1 (stereo not shown) [Compound E] and print it.
Output line: 85.43

Input line: Retrieve Viability measured for OC1CCN(c2ccc(Nc3ncc4c5ccncc5n(C5CCCC5)c4n3)nn2)C1 (stereo not shown) [Compound G] and print it.
Output line: 88.10

Input line: Retrieve Viability measured for CN(C)C1CCN(c2ccc(Nc3ncc4c5ccncc5n([C@H]5CC[C@H](C)CC5)c4n3)nn2)CC1 [Compound B] and print it.
Output line: 85.63
